Below, each entry is listed with its recorded IC50.
# systemName: ferroportin (Fpn) (Mus musculus)
# Construct: endogenous in cells
# Sequence (Q9JHI9 whole entry): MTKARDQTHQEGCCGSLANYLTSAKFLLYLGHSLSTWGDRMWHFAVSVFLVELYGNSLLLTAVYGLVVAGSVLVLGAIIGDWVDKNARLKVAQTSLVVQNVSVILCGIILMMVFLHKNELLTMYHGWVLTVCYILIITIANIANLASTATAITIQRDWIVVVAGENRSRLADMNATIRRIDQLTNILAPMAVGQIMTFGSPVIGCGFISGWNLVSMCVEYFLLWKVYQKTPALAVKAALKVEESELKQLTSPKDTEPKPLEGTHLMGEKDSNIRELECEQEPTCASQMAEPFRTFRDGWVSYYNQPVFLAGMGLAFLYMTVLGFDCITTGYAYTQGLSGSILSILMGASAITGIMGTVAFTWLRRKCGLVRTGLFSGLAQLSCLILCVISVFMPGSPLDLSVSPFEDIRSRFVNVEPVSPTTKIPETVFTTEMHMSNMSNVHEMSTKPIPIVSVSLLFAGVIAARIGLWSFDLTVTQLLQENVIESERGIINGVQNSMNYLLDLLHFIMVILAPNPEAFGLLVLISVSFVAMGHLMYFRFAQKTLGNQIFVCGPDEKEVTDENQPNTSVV
# assayComment: Hepcidin Internalization Assay (J774)
# assayContext: J774 cells, TMR-hepcidin 25 nM, 2 hours; read-out: IC 50, average (AVE) of multiple measurements, hepcidin internalization assay
Quick note: give the figure in nM, leave out the unit.

>>> experimentalresult("O=C(NCc1ncccc1F)c1coc(CCNCCc2nc3ccc(-c4nn[nH]n4)cc3[nH]2)n1 [compound 40]")
1040

**Query** # IC50 lookup, item O=C(NCc1ncccc1C(F)(F)F)c1coc(CCNCCc2nc3cc4c(cc3[nH]2)OCCO4)n1 [compound 56]
**Result** 49

**Query** # IC50 lookup, item COc1cccnc1CNC(=O)c1coc(CCNCCc2nc3cc4c(cc3[nH]2)OCCO4)n1 [compound 48]
**Result** 26

Source of measurements: patent US20240239780A1
